- protocol.details: NCI Yeast Anticancer Drug Screen. Data for the mec2-1 strain (AID 157)
- condition.summary: S. cerevisiae mec2-1 strain, at 50.0 µM
About 79,000 compounds went through this panel and 15% of them were active in at least one assay; those are over-represented in the sample as a whole. The source made the active and inactive calls. Cut-off read from the data, not from the text of the source: active = growth inhibition above about 70%; inactive = the rest.
Response enum: Y (active), N (inactive)

[ask] In this assay, the call recorded for "C1CN(P(N2CCOCC2)N2CCOCC2)CCO1" was what?
[reply] N

[ask] Query: recorded result category for "CC12CC3CC(C1)CC(N=[N+]=[N-])(C3)C2" in this test
[reply] N

[ask] Which outcome was entered for the compound "O=C(O)CNC(=O)c1ccc([As](=O)(O)O)cc1" in this test?
[reply] N

[ask] Record lookup: outcome of this test for "COc1ccc(C=C2C(=O)NC(=O)NC2=O)cc1OC" ?
[reply] N
